Cited source for all entries: BigSolDB 2.1

details: in isopropanol, 318.15 K
result-type: solubility (mole fraction)
Give bare numbers.

Q. Requested read-out: solubility (mole fraction). Entry: `CC(=O)Oc1ccccc1C(=O)Nc1ncc([N+](=O)[O-])s1`
A. 0.000607

---

conditions: in water, 288.15 K
result-type: solubility (mole fraction)
Answers are plain numbers.

Q. Requested read-out: solubility (mole fraction). Entry: `CC(=O)Oc1ccccc1C(=O)Nc1ncc([N+](=O)[O-])s1`
A. 2.23e-07

---

conditions: in DMF, 308.15 K
result-type: solubility (mole fraction)

Q. Requested read-out: solubility (mole fraction). Entry: `CC(=O)Oc1ccccc1C(=O)Nc1ncc([N+](=O)[O-])s1`
A. 0.0992

---

details: in water, 298.15 K
result-type: solubility (mole fraction)

Q. Requested read-out: solubility (mole fraction). Entry: `CC(=O)Oc1ccccc1C(=O)Nc1ncc([N+](=O)[O-])s1`
A. 3.81e-07

---

conditions: in NMP, 288.15 K
result-type: solubility (mole fraction)
Give bare numbers.

Q. Requested read-out: solubility (mole fraction). Entry: `CC(=O)Oc1ccccc1C(=O)Nc1ncc([N+](=O)[O-])s1`
A. 0.0964

---

details: in DMF, 298.15 K
result-type: solubility (mole fraction)
Answers are plain numbers.

Q. Requested read-out: solubility (mole fraction). Entry: `CC(=O)Oc1ccccc1C(=O)Nc1ncc([N+](=O)[O-])s1`
A. 0.0882

---

settings: in NMP, 323.15 K
result-type: solubility (mole fraction)
Give bare numbers.

Q. Requested read-out: solubility (mole fraction). Entry: `CC(=O)Oc1ccccc1C(=O)Nc1ncc([N+](=O)[O-])s1`
A. 0.123

---

details: in water, 303.15 K
result-type: solubility (mole fraction)
Answers are plain numbers.

Q. Requested read-out: solubility (mole fraction). Entry: `CC(=O)Oc1ccccc1C(=O)Nc1ncc([N+](=O)[O-])s1`
A. 4.98e-07

---

settings: in DMF, 288.15 K
result-type: solubility (mole fraction)
Numbers only.

Q. Requested read-out: solubility (mole fraction). Entry: `CC(=O)Oc1ccccc1C(=O)Nc1ncc([N+](=O)[O-])s1`
A. 0.077

---

conditions: in NMP, 293.15 K
result-type: solubility (mole fraction)
Answers are plain numbers.

Q. Requested read-out: solubility (mole fraction). Entry: `CC(=O)Oc1ccccc1C(=O)Nc1ncc([N+](=O)[O-])s1`
A. 0.1

---

conditions: in water, 318.15 K
result-type: solubility (mole fraction)
Numbers only.

Q. Requested read-out: solubility (mole fraction). Entry: `CC(=O)Oc1ccccc1C(=O)Nc1ncc([N+](=O)[O-])s1`
A. 9.9e-07

---

conditions: in isopropanol, 323.15 K
result-type: solubility (mole fraction)

Q. Requested read-out: solubility (mole fraction). Entry: `CC(=O)Oc1ccccc1C(=O)Nc1ncc([N+](=O)[O-])s1`
A. 0.000684

---

conditions: in DMF, 323.15 K
result-type: solubility (mole fraction)
Give bare numbers.

Q. Requested read-out: solubility (mole fraction). Entry: `CC(=O)Oc1ccccc1C(=O)Nc1ncc([N+](=O)[O-])s1`
A. 0.118

---

details: in NMP, 308.15 K
result-type: solubility (mole fraction)
One number for each entry.

Q. Requested read-out: solubility (mole fraction). Entry: `CC(=O)Oc1ccccc1C(=O)Nc1ncc([N+](=O)[O-])s1`
A. 0.112

---

settings: in isopropanol, 278.15 K
result-type: solubility (mole fraction)

Q. Requested read-out: solubility (mole fraction). Entry: `CC(=O)Oc1ccccc1C(=O)Nc1ncc([N+](=O)[O-])s1`
A. 0.000205

---

details: in water, 308.15 K
result-type: solubility (mole fraction)
Numbers only.

Q. Requested read-out: solubility (mole fraction). Entry: `CC(=O)Oc1ccccc1C(=O)Nc1ncc([N+](=O)[O-])s1`
A. 6.34e-07

---

conditions: in isopropanol, 313.15 K
result-type: solubility (mole fraction)
One number for each entry.

Q. Requested read-out: solubility (mole fraction). Entry: `CC(=O)Oc1ccccc1C(=O)Nc1ncc([N+](=O)[O-])s1`
A. 0.000542

---

details: in NMP, 303.15 K
result-type: solubility (mole fraction)

Q. Requested read-out: solubility (mole fraction). Entry: `CC(=O)Oc1ccccc1C(=O)Nc1ncc([N+](=O)[O-])s1`
A. 0.107

---

details: in water, 283.15 K
result-type: solubility (mole fraction)
One number for each entry.

Q. Requested read-out: solubility (mole fraction). Entry: `CC(=O)Oc1ccccc1C(=O)Nc1ncc([N+](=O)[O-])s1`
A. 1.66e-07

---

conditions: in NMP, 298.15 K
result-type: solubility (mole fraction)
Answers are plain numbers.

Q. Requested read-out: solubility (mole fraction). Entry: `CC(=O)Oc1ccccc1C(=O)Nc1ncc([N+](=O)[O-])s1`
A. 0.104

---

settings: in isopropanol, 303.15 K
result-type: solubility (mole fraction)
Answers are plain numbers.

Q. Requested read-out: solubility (mole fraction). Entry: `CC(=O)Oc1ccccc1C(=O)Nc1ncc([N+](=O)[O-])s1`
A. 0.000419

---

settings: in NMP, 278.15 K
result-type: solubility (mole fraction)

Q. Requested read-out: solubility (mole fraction). Entry: `CC(=O)Oc1ccccc1C(=O)Nc1ncc([N+](=O)[O-])s1`
A. 0.0891

---

conditions: in water, 293.15 K
result-type: solubility (mole fraction)
Answers are plain numbers.

Q. Requested read-out: solubility (mole fraction). Entry: `CC(=O)Oc1ccccc1C(=O)Nc1ncc([N+](=O)[O-])s1`
A. 2.93e-07

---

details: in isopropanol, 308.15 K
result-type: solubility (mole fraction)
Answers are plain numbers.

Q. Requested read-out: solubility (mole fraction). Entry: `CC(=O)Oc1ccccc1C(=O)Nc1ncc([N+](=O)[O-])s1`
A. 0.000476

---

details: in NMP, 313.15 K
result-type: solubility (mole fraction)
One number for each entry.

Q. Requested read-out: solubility (mole fraction). Entry: `CC(=O)Oc1ccccc1C(=O)Nc1ncc([N+](=O)[O-])s1`
A. 0.116

---

conditions: in isopropanol, 288.15 K
result-type: solubility (mole fraction)
Numbers only.

Q. Requested read-out: solubility (mole fraction). Entry: `CC(=O)Oc1ccccc1C(=O)Nc1ncc([N+](=O)[O-])s1`
A. 0.000277

---

conditions: in NMP, 318.15 K
result-type: solubility (mole fraction)

Q. Requested read-out: solubility (mole fraction). Entry: `CC(=O)Oc1ccccc1C(=O)Nc1ncc([N+](=O)[O-])s1`
A. 0.119

---

conditions: in isopropanol, 298.15 K
result-type: solubility (mole fraction)

Q. Requested read-out: solubility (mole fraction). Entry: `CC(=O)Oc1ccccc1C(=O)Nc1ncc([N+](=O)[O-])s1`
A. 0.000367
